Consider the following molecules; for each one, report its IC50.
Target: Signal transducer and activator of transcription 3 (Homo sapiens, UniProt P40763)
Sequence (P40763 whole entry): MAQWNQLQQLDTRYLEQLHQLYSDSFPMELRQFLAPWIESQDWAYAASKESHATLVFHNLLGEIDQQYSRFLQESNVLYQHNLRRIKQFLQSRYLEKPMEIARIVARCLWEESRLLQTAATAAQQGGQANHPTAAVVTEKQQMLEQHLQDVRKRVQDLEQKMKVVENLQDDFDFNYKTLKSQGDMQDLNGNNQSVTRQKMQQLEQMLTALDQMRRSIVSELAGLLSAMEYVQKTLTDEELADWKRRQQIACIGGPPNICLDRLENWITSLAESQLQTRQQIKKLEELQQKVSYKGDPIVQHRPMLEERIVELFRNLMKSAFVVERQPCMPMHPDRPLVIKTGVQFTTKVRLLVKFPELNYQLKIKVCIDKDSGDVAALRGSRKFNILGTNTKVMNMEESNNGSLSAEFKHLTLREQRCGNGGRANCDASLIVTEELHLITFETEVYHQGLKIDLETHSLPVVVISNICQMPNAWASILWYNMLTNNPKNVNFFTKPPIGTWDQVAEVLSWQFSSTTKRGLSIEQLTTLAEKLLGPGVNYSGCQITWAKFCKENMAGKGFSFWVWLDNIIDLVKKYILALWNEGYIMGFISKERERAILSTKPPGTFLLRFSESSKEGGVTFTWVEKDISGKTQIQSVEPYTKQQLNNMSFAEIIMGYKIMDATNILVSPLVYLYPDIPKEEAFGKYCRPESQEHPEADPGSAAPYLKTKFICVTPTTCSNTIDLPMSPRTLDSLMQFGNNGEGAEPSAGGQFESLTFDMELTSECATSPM
Experiment: Inhibition of IL-6-Induced STAT3 activation (unknown origin) expressed in human HepG2 cells expressing pSTAT3-luciferase pre-incubated for 1 hr before IL-6 stimulation for 6 hrs by luciferase reporter gene assay
The response must be a number in µM with no trailing unit.

Form: molecule = COC(=O)C1=CO[C@@H](O[C@@H]2O[C@H](CO[C@@H]3C[C@@H]4C(C(=O)OC)=CO[C@@H](O[C@@H]5O[C@H](CO)[C@@H](O)[C@H](O)[C@H]5O)[C@@H]4[C@H](C)O3)[C@@H](O)[C@H](O)[C@H]2O)[C@@H]2[C@H](C)O[C@H](OC)C[C@H]12 ; IC50 = 27.6

Form: molecule = COC(=O)C1=CO[C@@H](O[C@@H]2O[C@H](CO[C@@H]3C[C@@H]4C(C(=O)OC)=CO[C@@H](O[C@@H]5O[C@H](CO)[C@@H](O)[C@H](O)[C@H]5O)[C@@H]4[C@H](C)O3)[C@@H](O)[C@H](O)[C@H]2O)[C@@H]2[C@@H](C)[C@@H](O)C[C@H]12 ; IC50 = 12.2

Form: molecule = COC(=O)C1=CO[C@@H](O[C@@H]2O[C@H](CO)[C@@H](O)[C@H](O)[C@H]2O)[C@@H]2[C@H](C)O[C@H](O)C[C@H]12 [(7Alpha-Hydroxy)-Morroniside] ; IC50 = 7

Form: molecule = COC(=O)C1=CO[C@@H](O[C@@H]2O[C@H](C)[C@@H](O)[C@H](O)[C@H]2O)[C@@H]2[C@H](C)O[C@@H](O[C@H]3[C@H](O)[C@@H](O)[C@H](O[C@@H]4OC=C(C(=O)OC)[C@H]5C[C@H](OC)O[C@@H](C)[C@@H]45)O[C@@H]3CO)C[C@H]12 ; IC50 = 79.1

Form: molecule = COC(=O)C1=CO[C@@H](O[C@@H]2O[C@H](CO)[C@@H](O)[C@H](O)[C@H]2O)[C@@H]2[C@H](C)[C@@H](O)C[C@H]12 [7-Epi-Loganin] ; IC50 = 22.9

Form: molecule = COC(=O)C1=CO[C@@H](O[C@@H]2O[C@H](CO)[C@@H](O)[C@H](O)[C@H]2O)[C@@H]2[C@@H](C)[C@@H](O[C@H]3C[C@@H]4C(C(=O)OC)=CO[C@@H](O[C@@H]5O[C@H](CO)[C@@H](O)[C@H](O)[C@H]5O)[C@@H]4[C@@H](C)O3)C[C@H]12 ; IC50 = 71.9

Form: molecule = COC(=O)C1=CO[C@@H](O[C@@H]2O[C@H](CO)[C@@H](O)[C@H](O)[C@H]2O)[C@@H]2[C@H](C)O[C@H](OC)C[C@H]12 ; IC50 = 32.5
